- test-system: human TLR8 (Homo sapiens)
- Construct: expressed in transfected cells; host or cells: HEK293
- method: TLR8 cellular NFκB-luc reporter assay in transiently transfected HEK293 cells
- Format: cell-based
- experimental-setup: lowest effective concentration, 6 hours incubation
metric: Human TLR 8 (LEC) (µM)

• CCc1noc([C@@H](C)Nc2nc(N)nc3cccc(OC)c23)n1 (single isomer, unassigned) [Compound 25] = 6.62
• Cc1ccc2c(N[C@H](C)c3ccccn3)nc(N)nc2c1 (single isomer, unassigned) [Compound 5] = 14.7
• CC(Nc1nc(N)nc2cc(C(=O)N(C)C(C)C)ccc12)c1ccccn1 (centres unmarked) [Compound 24] = 11.0

* * *

- test-system: human TLR8 (Homo sapiens, UniProt Q9NR97)
- Construct: expressed in transfected cells; host or cells: HEK293
- Sequence (Q9NR97 27-1041): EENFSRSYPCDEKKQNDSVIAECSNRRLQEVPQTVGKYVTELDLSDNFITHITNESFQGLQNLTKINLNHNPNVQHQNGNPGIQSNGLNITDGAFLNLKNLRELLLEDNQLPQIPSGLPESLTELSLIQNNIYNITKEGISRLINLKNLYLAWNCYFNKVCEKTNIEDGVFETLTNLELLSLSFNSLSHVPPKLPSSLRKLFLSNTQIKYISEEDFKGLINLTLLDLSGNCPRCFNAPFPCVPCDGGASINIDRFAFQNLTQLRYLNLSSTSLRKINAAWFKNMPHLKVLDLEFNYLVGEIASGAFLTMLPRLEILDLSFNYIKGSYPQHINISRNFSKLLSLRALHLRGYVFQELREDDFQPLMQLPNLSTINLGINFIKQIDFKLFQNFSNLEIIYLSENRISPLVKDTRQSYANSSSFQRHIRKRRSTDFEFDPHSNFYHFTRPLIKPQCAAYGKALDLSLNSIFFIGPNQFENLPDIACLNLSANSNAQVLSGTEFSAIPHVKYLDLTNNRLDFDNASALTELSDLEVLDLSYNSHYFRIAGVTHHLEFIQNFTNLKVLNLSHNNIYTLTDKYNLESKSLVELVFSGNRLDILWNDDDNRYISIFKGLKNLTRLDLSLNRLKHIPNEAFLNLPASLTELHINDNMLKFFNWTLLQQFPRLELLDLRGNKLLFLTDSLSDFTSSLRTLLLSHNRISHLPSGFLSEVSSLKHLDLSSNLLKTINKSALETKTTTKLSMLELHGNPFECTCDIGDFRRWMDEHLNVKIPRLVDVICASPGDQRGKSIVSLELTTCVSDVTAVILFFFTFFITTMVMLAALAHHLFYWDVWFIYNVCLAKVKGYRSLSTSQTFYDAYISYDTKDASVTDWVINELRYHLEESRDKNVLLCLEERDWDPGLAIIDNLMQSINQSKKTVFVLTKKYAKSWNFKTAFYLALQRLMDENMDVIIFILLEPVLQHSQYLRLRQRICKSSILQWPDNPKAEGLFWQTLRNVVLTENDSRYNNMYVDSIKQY
- method: TLR8 cellular NFκB-luc reporter assay in transiently transfected HEK293 cells
- Type: cell-based
- experimental-setup: lowest effective concentration, 6 hours incubation
metric: Human TLR 8 (LEC) (µM)

* Nc1nc(N[C@@H](CO)[C@@H](O)c2ccccc2)c2ccccc2n1 | 5.51
* C[C@H](Nc1nc(N)nc2cccc(F)c12)c1ccccn1 (single isomer, unassigned) | 24.3

From: patent US10723707B2
